Where do the numbers come from? From ChEMBL document CHEMBL3826883.

Quick record: pKi, Endoplasmic reticulum aminopeptidase 1 (Homo sapiens, UniProt Q9NZ08).
pKi: −log10 of the molar value.

Use the examples below as a reference point.
compound	pKi
NC(CNC1CCCCC1)P(=O)(O)O (stereo unspecified)	< 3.60
CCCNCC(N)P(=O)(O)O (stereo unspecified)	< 3.60
NCCNCC(N)P(=O)(O)O (stereo unspecified)	< 3.60
NC(CNC1CCCCCC1)P(=O)(O)O (stereo unspecified)	< 3.60
NC(CN1CCOCC1)P(=O)(O)O (stereo unspecified)	< 3.60
NC(CCc1ccccc1)P(=O)(O)CC(Cc1ccc(O)cc1)C(=O)O (stereo unspecified)	5.19
CN(C)CCNCC(N)P(=O)(O)O (stereo unspecified)	< 3.60
NCc1ccc(CNCC(N)P(=O)(O)O)cc1 (stereo unspecified)	< 3.60
CCCCCCNCC(N)P(=O)(O)O (stereo unspecified)	< 3.60
NC(CNC1CCCCCC1)P(=O)(O)CC(Cc1ccccc1)C(=O)O (stereo unspecified)	< 3.60

Hey, can you go through the list below and give me pKi for every item?
1. NC(CNCc1ccccc1)P(=O)(O)O (stereo unspecified)
2. NC(CN1CCCCC1)P(=O)(O)O (stereo unspecified)

Data returned:
1: < 3.60; 2: < 3.60

Items follow; give pKi for each.
1. CC(C)C[C@@H](N)P(=O)(O)O
2. CC(C)CNCC(N)P(=O)(O)CC(Cc1ccccc1)C(=O)O (stereo unspecified)
3. CC(C)(C)c1ccc(CNCC(N)P(=O)(O)O)cc1 (stereo unspecified)

Data returned:
1. 3.60
2. < 3.60
3. < 3.60

Return reported pKi values for all items listed beneath this line.
1. CC(C)C[C@H](N)P(=O)(O)O [LEUCINE PHOSPHONIC ACID]
2. NC(CNCC1CCCO1)P(=O)(O)O (stereo unspecified)

Data returned:
1: 5.29; 2: < 3.60

###

Target: Endoplasmic reticulum aminopeptidase 2 (Homo sapiens)
Sequence (Q6P179 whole entry): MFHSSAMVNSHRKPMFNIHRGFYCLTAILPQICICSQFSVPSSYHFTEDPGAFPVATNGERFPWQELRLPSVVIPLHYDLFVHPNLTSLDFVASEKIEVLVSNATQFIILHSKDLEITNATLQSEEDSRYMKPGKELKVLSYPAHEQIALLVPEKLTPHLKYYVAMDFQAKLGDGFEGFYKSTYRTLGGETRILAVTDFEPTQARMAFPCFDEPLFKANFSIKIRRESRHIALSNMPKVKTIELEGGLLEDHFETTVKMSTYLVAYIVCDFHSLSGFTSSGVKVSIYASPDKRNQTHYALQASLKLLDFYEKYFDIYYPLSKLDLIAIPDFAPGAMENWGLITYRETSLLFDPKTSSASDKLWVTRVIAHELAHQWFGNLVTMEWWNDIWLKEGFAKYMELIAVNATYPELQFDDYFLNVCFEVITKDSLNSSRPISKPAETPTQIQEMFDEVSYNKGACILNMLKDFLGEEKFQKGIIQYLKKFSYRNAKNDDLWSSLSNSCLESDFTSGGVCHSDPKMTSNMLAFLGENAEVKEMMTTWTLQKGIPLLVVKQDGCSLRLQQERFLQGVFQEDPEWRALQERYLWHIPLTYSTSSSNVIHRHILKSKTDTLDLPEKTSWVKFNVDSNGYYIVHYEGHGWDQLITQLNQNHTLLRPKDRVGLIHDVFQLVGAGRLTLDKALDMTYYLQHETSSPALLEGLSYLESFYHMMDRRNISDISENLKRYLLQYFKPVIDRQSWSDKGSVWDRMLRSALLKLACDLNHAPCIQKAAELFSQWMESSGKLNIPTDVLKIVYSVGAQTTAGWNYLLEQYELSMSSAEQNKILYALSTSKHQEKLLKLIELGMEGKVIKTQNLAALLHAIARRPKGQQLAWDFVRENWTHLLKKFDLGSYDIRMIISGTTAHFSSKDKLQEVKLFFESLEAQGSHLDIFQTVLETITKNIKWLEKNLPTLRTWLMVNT
pKi: −log10 of the molar value.
quantity: pKi

Below: 10 compounds and their reported pKi.
compound	pKi
NC(CNCC1CCCO1)P(=O)(O)O (centres undefined)	< 3.60
NC(CN1CCOCC1)P(=O)(O)O (centres undefined)	< 3.60
NCc1ccc(CC(CP(=O)(O)C(N)CCc2ccccc2)C(=O)O)cc1 (centres undefined)	< 3.60
CCCNCC(N)P(=O)(O)O (centres undefined)	< 3.60
CN(C)CCNCC(N)P(=O)(O)O (centres undefined)	< 3.60
N[C@@H](CCc1ccccc1)P(=O)(O)C[C@@H](Cc1ccccc1)C(=O)O (mixture of isomers)	5.99
CC(C)C[C@H](N)P(=O)(O)O	< 3.60
CC(NCC(N)P(=O)(O)O)c1ccccc1 (centres undefined)	< 3.60
NC(CNCc1ccccc1)P(=O)(O)O (centres undefined)	3.97
CNCC(N)P(=O)(O)O (centres undefined)	< 3.60

I would be grateful if you could provide pKi for each of the following entries.
1. NCCNCC(N)P(=O)(O)O (centres undefined)
2. CC(C)C[C@@H](N)P(=O)(O)O
3. NC(CCc1ccccc1)P(=O)(O)CC(Cc1ccccc1)C(=O)O (centres undefined)
4. Cc1cc(C)cc(CC(CP(=O)(O)C(N)CCc2ccccc2)C(=O)O)c1 (centres undefined)

Data returned:
["< 3.60", "< 3.60", 6.46, "< 3.60"]
